# STUDY_TARGET: SSTR3 (Homo sapiens)
# Construct: purchased Promega (in-house HiBiT-GPCR construct library, NanoBRET)
# Sequence (P32745 whole entry): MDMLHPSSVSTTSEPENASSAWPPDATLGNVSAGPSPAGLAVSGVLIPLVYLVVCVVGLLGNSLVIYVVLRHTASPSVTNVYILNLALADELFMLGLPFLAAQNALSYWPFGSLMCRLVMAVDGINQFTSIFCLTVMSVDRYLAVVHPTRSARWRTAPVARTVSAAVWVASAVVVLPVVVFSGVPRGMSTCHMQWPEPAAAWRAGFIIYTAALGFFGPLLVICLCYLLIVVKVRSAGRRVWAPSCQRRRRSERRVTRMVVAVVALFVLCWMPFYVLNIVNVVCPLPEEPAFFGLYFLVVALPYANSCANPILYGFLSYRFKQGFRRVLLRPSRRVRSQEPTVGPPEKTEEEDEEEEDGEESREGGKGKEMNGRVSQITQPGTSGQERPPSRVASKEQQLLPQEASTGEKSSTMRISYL
# ASSAY_DETAILS: NanoBRET screen HiBiT-SSTR3 in HEK293
# Assay type: binding
# STUDY_CONDITIONS: SSTR3; tracer 0.1μM

STRUCTURE	NanoBRET Fold Response
COc1ccccc1N1CCN(CCCCN2C(=O)c3ccc(CNC(=O)CCOCCOCCOCCOCCNC(=O)CCc4ccc5n4[B-](F)(F)[N+]4=C(c6ccc[nH]6)C=CC4=C5)cc3C2=O)CC1	1.00
CC(C)N(CC[C@H](c1ccccc1)c1cc(CCNC(=O)CCOCCOCCOCCOCCNC(=O)CCc2ccc3n2[B-](F)(F)[N+]2=C(c4ccc[nH]4)C=CC2=C3)ccc1O)C(C)C	1.08
CCCn1c(=O)c2[nH]c(-c3ccc(OCC(=O)NCCNC(=O)CCOCCNC(=O)c4ccc(CNC(=O)CCc5ccc6n5[B-](F)(F)[N+]5=C(c7ccc[nH]7)C=CC5=C6)cc4)cc3)nc2n(CCC)c1=O	0.99
COc1ccccc1N1CCN(CCCCN2C(=O)c3ccc(CNC(=O)CCOCCNC(=O)c4ccc(CNC(=O)CCc5ccc6n5[B-](F)(F)[N+]5=C(c7ccc[nH]7)C=CC5=C6)cc4)cc3C2=O)CC1	1.07
O=C(CCc1ccc2n1[B-](F)(F)[N+]1=C(c3ccc[nH]3)C=CC1=C2)NCCOCCOCCNC(=O)OCCOCCN1CCN(C2=Nc3ccccc3Sc3ccccc32)CC1	0.96

----------
# STUDY_TARGET: HTR1E (Homo sapiens)
# Construct: purchased Promega (in-house HiBiT-GPCR construct library, NanoBRET)
# Sequence (P28566 whole entry): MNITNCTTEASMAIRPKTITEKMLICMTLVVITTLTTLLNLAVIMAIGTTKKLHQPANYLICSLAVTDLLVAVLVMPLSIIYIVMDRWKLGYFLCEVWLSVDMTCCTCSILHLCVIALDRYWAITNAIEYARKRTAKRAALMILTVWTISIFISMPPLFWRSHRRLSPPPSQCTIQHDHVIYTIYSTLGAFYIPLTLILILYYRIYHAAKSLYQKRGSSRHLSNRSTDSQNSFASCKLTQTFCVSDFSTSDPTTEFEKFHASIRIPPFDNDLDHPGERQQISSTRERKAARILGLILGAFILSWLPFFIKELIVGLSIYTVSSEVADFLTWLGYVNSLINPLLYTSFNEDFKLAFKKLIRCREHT
# ASSAY_DETAILS: NanoBRET screen HiBiT-HTR1E in HEK293
# Format: binding
# STUDY_CONDITIONS: HTR1E; tracer 0.1μM
The label is t for NanoBRET Fold Response below 1 and f for NanoBRET Fold Response equal to or exceeding 1.

MOLECULE	CLASS_ASSIGNMENT
O=C(CCc1ccc2n1[B-](F)(F)[N+]1=C(c3ccc[nH]3)C=CC1=C2)NCc1ccc(C(=O)NCCOCCC(=O)N[C@@H]2CC[C@@]3(O)[C@H]4Cc5ccc(O)c6c5[C@@]3(CCN4CC3CC3)[C@H]2O6)cc1 [Naltrexone-3-NB590]	t
N#CN=C(NCCCOc1cccc(CN2CCCCC2)c1)NCCNC(=O)CCOCCOCCOCCOCCNC(=O)CCc1ccc2n1[B-](F)(F)[N+]1=C(c3ccc[nH]3)C=CC1=C2	t
Cc1nc2n(c(=O)c1CCN1CCC(c3noc4cc(F)ccc34)CC1)CCCC2OC(=O)NCCOCCOCCOCCOCCNC(=O)CCc1ccc2n1[B-](F)(F)[N+]1=C(c3ccc[nH]3)C=CC1=C2 (stereo not drawn)	t
CC(C)N(CC[C@H](c1ccccc1)c1cc(CCNC(=O)c2ccc(CNC(=O)CCc3ccc4n3[B-](F)(F)[N+]3=C(c5ccc[nH]5)C=CC3=C4)cc2)ccc1O)C(C)C	f
COc1ccccc1N1CCN(CCCCN2C(=O)c3ccc(CNC(=O)CCOCCOCCOCCOCCNC(=O)CCc4ccc5n4[B-](F)(F)[N+]4=C(c6ccc[nH]6)C=CC4=C5)cc3C2=O)CC1	t
CCCn1c(=O)c2[nH]c(-c3ccc(OCC(=O)NCCNC(=O)CCOCCNC(=O)c4ccc(CNC(=O)CCc5ccc6n5[B-](F)(F)[N+]5=C(c7ccc[nH]7)C=CC5=C6)cc4)cc3)nc2n(CCC)c1=O	f
